Target: TTK (MV4-11^HiBiT-TTK cells) (Homo sapiens)
Construct: expressed in transfected cells; host or cells: MV4-11, lentiviral transduction (pRRL-PGK-HiBiT entry vector)
Sequence (P33981 whole entry): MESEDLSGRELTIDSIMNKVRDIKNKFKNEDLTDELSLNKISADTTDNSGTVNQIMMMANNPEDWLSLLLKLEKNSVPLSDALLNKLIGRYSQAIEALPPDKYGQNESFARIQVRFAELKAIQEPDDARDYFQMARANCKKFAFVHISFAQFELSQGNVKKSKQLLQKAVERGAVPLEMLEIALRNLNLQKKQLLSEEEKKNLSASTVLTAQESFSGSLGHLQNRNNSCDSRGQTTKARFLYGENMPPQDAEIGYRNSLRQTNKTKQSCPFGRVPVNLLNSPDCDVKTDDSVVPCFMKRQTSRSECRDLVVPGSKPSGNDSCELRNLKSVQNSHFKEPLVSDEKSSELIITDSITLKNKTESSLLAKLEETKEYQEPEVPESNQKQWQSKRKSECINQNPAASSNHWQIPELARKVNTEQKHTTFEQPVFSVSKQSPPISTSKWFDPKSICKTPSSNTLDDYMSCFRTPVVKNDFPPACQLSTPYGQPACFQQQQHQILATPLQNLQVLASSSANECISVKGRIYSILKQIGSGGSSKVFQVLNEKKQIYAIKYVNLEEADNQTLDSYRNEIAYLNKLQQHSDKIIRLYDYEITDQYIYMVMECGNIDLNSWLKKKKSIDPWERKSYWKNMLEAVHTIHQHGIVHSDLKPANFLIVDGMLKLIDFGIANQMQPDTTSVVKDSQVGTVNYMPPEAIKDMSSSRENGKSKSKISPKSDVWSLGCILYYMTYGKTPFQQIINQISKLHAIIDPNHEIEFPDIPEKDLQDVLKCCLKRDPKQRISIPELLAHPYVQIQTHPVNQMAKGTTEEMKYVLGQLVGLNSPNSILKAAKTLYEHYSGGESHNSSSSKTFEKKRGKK
Experiment: HiBiT assay, TTK degradation
Type: cell-based
Settings: 6 h treatment, MV4-11^HiBiT-TTK cells; read-out: DC50 (half-maximal degradation concentration) TTK

MOLECULE	DC50
CC(C)S(=O)(=O)c1ccccc1Nc1nc(Nc2ccc(N3CCN(CC(=O)Nc4cccc5c4C(=O)N(C4CCC(=O)NC4=O)C5=O)CC3)cc2)nc2[nH]cnc12 (centres unmarked)	205 nM
CC(C)S(=O)(=O)c1ccccc1Nc1nc(Nc2ccc(N3CCN(CCCCC(=O)Nc4cccc5c4C(=O)N(C4CCC(=O)NC4=O)C5=O)CC3)cc2)nc2[nH]cnc12 (centres unmarked)	84.5 nM
Cc1ncsc1-c1ccc(CNC(=O)[C@@H]2C[C@@H](O)CN2C(=O)[C@@H](NC(=O)CCCC(=O)N2CCN(c3ccc(Nc4nc(NC5CCCCC5)c5nc[nH]c5n4)cc3)CC2)C(C)(C)C)cc1	1960 nM
COc1cc(N2CCNCC2)ccc1Nc1nc(Nc2ccccc2S(=O)(=O)C(C)C)c2nc[nH]c2n1	1750 nM
CC(C)S(=O)(=O)c1ccccc1Nc1nc(Nc2ccc(N3CCN(C(=O)CCC(=O)NCCNc4cccc5c4C(=O)N(C4CCC(=O)NC4=O)C5=O)CC3)cc2)nc2[nH]cnc12 (centres unmarked)	468 nM
